tested on: Sonic hedgehog protein (Shh); assay: small-molecule binders of Shh protein, primary screen, biochemical, small-molecule microarray, 635/667 nm fluorescence (AID 1151); details: small-molecule microarray binding, 635 nm fluorescence; higher = more signal;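 further: Shh protein binding to compounds spotted on small-molecule microarray slides; score combines spot fluorescence intensity with signal-to-noise across triplicate slides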
# composite z-score listing for each entry below
Form rule: numeric answer, no unit written next to it.

MOLECULE | TEST_TARGET | composite z-score
CC(CO)N1C(=O)[C@@H]2[C@H]3C(=O)OCC=C[C@H]3OC23C=CCN(CCN2CCOCC2)C(=O)[C@@H]13 (some centres not stated) | Sonic hedgehog protein (Shh) | 1.65
CCOC(=O)C1CCCCN1 (configuration not stated) | Sonic hedgehog protein (Shh) | 0.506
CCCC[C@@H]1C[C@H]1[C@@H](NC(=O)Cc1ccccc1)c1ccc(-c2ccccc2)cc1 | Sonic hedgehog protein (Shh) | -0.756
C=CCOC(=O)[C@H]1[C@@H]2C(=O)O[C@@H](c3ccccc3)[C@@H](c3ccccc3)N2[C@@H](c2ccc(OCCOC(=O)[C@@H]3C[C@@H]4C(=O)N[C@@H](CCCCNC(C)=O)C(=O)N4[C@@H]3c3ccc(O)cc3)cc2)[C@]12C(=O)Nc1ccc(I)cc12 | Sonic hedgehog protein (Shh) | 2.21
CCOC(=O)C[C@H]1[C@H](OC(=O)c2ccccc2-c2ccccc2)[C@@H](NC(=O)c2ccc(-c3ccccc3)cc2)c2cc(OCCCO)ccc2N1C(=O)c1ccc2ccccc2n1 | Sonic hedgehog protein (Shh) | 0.701
O=C1c2ccccc2[C@](Cc2ccccc2I)(C(=O)NCC(F)(F)F)[C@H](c2ccc(CO)cc2)N1C1CCCCC1 | Sonic hedgehog protein (Shh) | 0.176

[Q] Could you tell me which composite z-score is on file for COCCCNC(=O)[C@]1(CCS(=O)(=O)c2ccccc2)N=C(c2ccc(OCCCO)cc2)O[C@@H]1c1ccccc1CN=[N+]=[N-] ?
[A] 0.36

====

test: HepG2 liver cancer cell viability effects, profiling panel, resazurin fluorescence, 24 h, PK04 Diversity Set (AID 1172); settings: higher = more signal; further: test concentration not given here
ENDPOINT: z-score
Form rule: numeric answer, no unit written next to it.

MOLECULE | RECORDED_VALUE
[N-]=[N+]=Nc1ccccc1[C@H]1OC(c2ccc(OCCCO)cc2)=N[C@@]1(Cc1ccccc1)C(=O)N1CCCCC1 | -1.16
COC(=O)[C@@]1(Cc2ccccc2)[C@H]2c3cc(C(=O)N(C)C)n(CCN4CNCC4=O)c3C[C@H]2CN1C(=O)c1ccccc1 | 0.0001
C=CCNC(=O)[C@H]1[C@@H]2C(=O)O[C@@H](c3ccccc3)[C@@H](c3ccccc3)N2[C@@H](c2ccc(O)cc2)[C@]12C(=O)N(C(=O)OCCOC)c1ccccc12 | -0.757
COC(=O)[C@H](Cc1ccccc1)N1CC(/C=C/C2CC2)=C[C@H]1[C@H](O)Cc1ccccc1 | -0.57
CC(=O)c1ccc(C(O)C2C=CC3C(=O)N(c4ccccc4)C(=O)C3N2Nc2ccc(C#N)cc2)cc1 (stereo not drawn) | -1.04

[Q] Could you tell me which z-score is on file for COc1ccc([Si](C)(C)[C@@H]2[C@@H](CC(=O)N(CCO)Cc3ccccc3)O[C@]3(C(=O)N(c4ccccc4)c4ccccc43)[C@H]2C)cc1 ?
[A] -2.66

[Q] Could you tell me which z-score is on file for C=CCOC(=O)[C@H]1[C@@H]2C(=O)O[C@@H](c3ccccc3)[C@@H](c3ccccc3)N2[C@@H](c2ccc(OCCOC(=O)[C@@H]3C[C@@H]4C(=O)N5CCC[C@H]5C(=O)N4[C@@H]3c3ccc(O)cc3)cc2)[C@]12C(=O)Nc1ccc(I)cc12 ?
[A] -0.384

[Q] Could you tell me which z-score is on file for COCCOC(=O)N1C(=O)[C@@]2(c3cc(C#CC4=CCCCC4)ccc31)[C@H](C(N)=O)[C@H]1C(=O)O[C@H](c3ccccc3)[C@H](c3ccccc3)N1[C@@H]2c1ccccc1OCCO ?
[A] -2.76

[Q] Could you tell me which z-score is on file for COc1ccc(-c2cc3c(c(CCc4ccccc4)n2)[Si](C(C)C)(C(C)C)OC3)cn1 ?
[A] 1.09

[Q] Could you tell me which z-score is on file for COC(=O)[C@@]1(Cc2ccc(OC)cc2)[C@H]2c3cc(C(=O)N4CCCC4)n(Cc4c(-c5ccccc5)noc4C)c3C[C@H]2CN1C(=O)c1ccccc1 ?
[A] -0.338

[Q] Could you tell me which z-score is on file for C=CCC(OC(C)=O)[C@@H]1[C@@H](N(Cc2cccc3ccccc23)C(=O)Cc2ccc(F)cc2)c2cc(OCCCO)ccc2N1C(=O)c1ccc2ccccc2n1 (stereo partly drawn) ?
[A] -0.157

[Q] Could you tell me which z-score is on file for CCCC[C@@H]1C[C@H]1[C@@H](NC(=O)Cc1ccccc1)c1ccc(-c2ccccc2)cc1 ?
[A] 1.21

[Q] Could you tell me which z-score is on file for C=CCC(OC(C)=O)[C@@H]1[C@@H](N(Cc2cccc3ccccc23)C(=O)c2cccc3ccccc23)c2cc(OCCCO)ccc2N1C(=O)c1ccc(-c2ccccc2)cc1 (stereo partly drawn) ?
[A] -0.333

====

experiment: basal RPMI8226 viability, no added stimulus, profiling panel, cell-based, calcein-AM fluorescence, 48 h, PK04 Diversity Set (AID 1166); details: RPMI8226 myeloma viability, higher = more signal;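 further: cells grown under basal conditions without added stimulus; test concentration not given here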
Class (by z-score) -- interval 1 (below -1), interval 2 (-1 to below -0.2), interval 3 (-0.2 or more)

Solved cases below.
COMPOUND | DISCRETE_LABEL
CC(C)C(CO)N1C(=O)[C@@H]2C3C(=O)OCCC/C=C\[C@H]3OC23C=CCN(C(C)(C)C)C(=O)[C@@H]13 (stereo not given in full) | interval 3
C[N+](C)(C)CCCC[C@@H]1NC(=O)[C@H]2C[C@@H](C(=O)NCCCCCCN)[C@@H](c3ccc(O)cc3)N2C1=O | interval 3
Cc1ccc(S[C@]2(C(=O)NCC(F)(F)F)CC(=O)N(C3CCCCC3)[C@@H]2c2ccc(CO)cc2I)cc1 | interval 1
CCCC[C@@H]1C[C@H]1[C@@H](NC(=O)Cc1ccccc1)c1ccc(-c2ccccc2)cc1 | interval 1
COC(=O)[C@@]1(Cc2ccc(OC)cc2)[C@H]2c3cc(C(=O)N(C)C)n(Cc4ccc(Cl)c(C(F)(F)F)c4)c3C[C@H]2CN1C(=O)c1ccccc1 | interval 1

[Q] Kindly identify the class of O=C1OCCC/C=C\[C@H]2OC34C=CCN(CCN5CCOCC5)C(=O)[C@H]3N(CCCCCCO)C(=O)[C@@H]4C12 (stereo not given in full) .
[A] interval 3

[Q] Kindly identify the class of CC1=C([C@H](O)CCc2ccccc2)[C@H](CO)[C@@H]2C(=O)N(C)C(=O)[C@@H]2C1 .
[A] interval 2

[Q] Kindly identify the class of CN1C(=O)C2C=CC(C(O)c3ccccn3)N(N(c3ccccc3)c3ccccc3)C2C1=O (stereo not given) .
[A] interval 2

[Q] Kindly identify the class of COc1cc2c(cc1O)C(C)N(Cc1ccc([N+](=O)[O-])o1)CC2 (stereo not given) .
[A] interval 2

[Q] Kindly identify the class of COC(=O)C1=CC(CCCO)=CC(C2CC2)N(C)C=C1C(=O)OC (stereo not given) .
[A] interval 3

[Q] Kindly identify the class of O=C1O[C@H](c2ccccc2)[C@H](c2ccccc2)N2[C@H]1[C@@H](C(=O)Nc1nc3ccccc3s1)[C@]1(C(=O)Nc3ccc(C#CC4(O)CCCCCC4)cc31)[C@H]2c1ccccc1OCCO .
[A] interval 1

[Q] Kindly identify the class of N#Cc1ccc(C(O)C2C=CC3C(=O)N(c4ccccc4)C(=O)C3N2Nc2ccccc2)cc1 (stereo not given) .
[A] interval 3

[Q] Kindly identify the class of CCCCCCCCCCC(O)C1C=CC2C(=O)N(C)C(=O)C2N1NC(=O)OC(C)(C)C (stereo not given) .
[A] interval 1

====

biological target: Carbonic anhydrase 2 (Homo sapiens) (UniProt P00918); test: CAII small-molecule binders, profiling panel, biochemical, small-molecule microarray, Alexa647-labelled CAII (AID 1122); conditions: CAII-A647 binding fluorescence, higher = more signal
ENDPOINT: composite z-score
Form rule: numeric answer, no unit written next to it.

MOLECULE_SMILES | TEST_TARGET | composite z-score
O=C(N1CCCCC1)[C@@]1(CCS(=O)(=O)c2ccccc2)COC(c2ccc(OCCCO)cc2)=N1 | Carbonic anhydrase 2 (Homo sapiens) (UniProt P00918) | 0.582
C=CCNC(=O)[C@@H]1[C@H]2C(=O)O[C@H](c3ccccc3)[C@H](c3ccccc3)N2[C@H](c2ccc(O)cc2)[C@@]12C(=O)N(C(=O)OCCOC)c1ccc(C#CC3(O)CCCCCC3)cc12 | Carbonic anhydrase 2 (Homo sapiens) (UniProt P00918) | -0.742
CCCCCCc1nc(C2CC2)cc2c1[Si](C(C)C)(C(C)C)OC2 | Carbonic anhydrase 2 (Homo sapiens) (UniProt P00918) | -0.513

Shift focus to the following entry.
[Q] Could you tell me which composite z-score is on file for CC(C)OC(=O)C=C1C[C@@H](c2ccc(C(F)(F)F)cc2)O[C@@H](c2ccc(C(F)(F)F)cc2)O1 ?
[A] 0.717
